biological target: CSB-HD (helicase-like domain) (human, UniProt Q03468 498-1002); test: EMSA
Sequence (Q03468 498-1002): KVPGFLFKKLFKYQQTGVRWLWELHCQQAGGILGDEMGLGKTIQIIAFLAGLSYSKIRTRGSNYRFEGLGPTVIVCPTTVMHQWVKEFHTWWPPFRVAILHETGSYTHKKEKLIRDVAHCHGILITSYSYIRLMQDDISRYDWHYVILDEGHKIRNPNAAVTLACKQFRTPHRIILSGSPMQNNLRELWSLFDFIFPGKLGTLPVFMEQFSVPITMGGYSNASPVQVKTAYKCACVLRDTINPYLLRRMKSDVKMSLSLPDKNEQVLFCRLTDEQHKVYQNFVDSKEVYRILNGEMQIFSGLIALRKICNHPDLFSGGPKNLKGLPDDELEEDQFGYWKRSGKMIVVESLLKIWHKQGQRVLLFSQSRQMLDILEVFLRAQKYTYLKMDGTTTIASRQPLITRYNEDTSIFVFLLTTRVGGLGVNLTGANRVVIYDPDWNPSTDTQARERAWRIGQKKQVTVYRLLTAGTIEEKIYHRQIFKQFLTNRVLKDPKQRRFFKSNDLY
readoutKind: Kd (pM)
Report the figure in pM without appending any unit label.

*Q* Give me measured Kd, please, for this binder: ATAATTATAAATAAATAATGGGGTTTTGGGG (structured_DNA) [5'-tailed O. nova d(G4T4G4)]
*A* 9.88

Data origin, for the record: paper doi:10.1101/2021.03.25.436565
